- System: CCRIS mutagenicity, Ames/micronucleus/aberration tests
- Test method notes: CCRIS mutagenicity studies
- Test settings: Test System: AMES SALMONELLA TYPHIMURIUM; Strain/Indicator: TA1537; Metabolic Activation: HAMSTER, LIVER, S-9, AROCLOR 1254 (30%); Method: PREINCUBATION
Activity calls are given as the source filed them. No rule for the calls is given here.
Quantity: mutagenic call

COC(=O)c1ccccc1O : inactive; negative
CC(C)(C)c1ccc(OCC2CO2)cc1 (stereo unspecified) : inactive; negative
CC1OC1C (stereo unspecified) : inactive; negative
CCCSC(=O)Cl : inactive; negative
CC(CCl)OP(=O)(OC(C)CCl)OC(C)CCl (stereo unspecified) : inactive; negative

Here is the next item to consider.
Item: N[C@@H](Cc1c[nH]c2ccccc12)C(=O)O | System: CCRIS mutagenicity, Ames/micronucleus/aberration tests | mutagenic call: inactive; negative

###

- Test system: CCRIS mutagenicity, Ames/micronucleus/aberration tests
- Test method notes: CCRIS mutagenicity studies
- Test settings: Test System: AMES SALMONELLA TYPHIMURIUM; Strain/Indicator: TA100; Metabolic Activation: S-9; Method: PREINCUBATION
Calls of active or inactive are those of the source. No rule for the calls is given here.
# output must be one of TRUE for active, FALSE for inactive

CN(C)/N=N/c1nc[nH]c1C(N)=O : FALSE
Cc1cccc2cccnc12 : FALSE
C[C@@H](O)[C@H]1C(=O)N2C(C(=O)O)=C([C@H]3CCCO3)S[C@H]12 : FALSE
Nc1cccc(N)c1 : TRUE
Nc1cc2nc3ccccc3nc2cc1N : TRUE

# evaluate next
Qu. Hi team, can someone confirm the assay call for CCN(CC)N=O ?
Ans. FALSE

###

- Test system: CCRIS mutagenicity, Ames/micronucleus/aberration tests
- Test method notes: CCRIS mutagenicity studies
- Test settings: Test System: AMES SALMONELLA TYPHIMURIUM; Strain/Indicator: TA100; Metabolic Activation: HAMSTER, LIVER, S-9, AROCLOR 1254 (30%); Method: PREINCUBATION
Calls of active or inactive are those of the source. No rule for the calls is given here.
Write down the outcome that applies. Available outcomes: active, inactive

ClCBr : active
CCCCCCCCCCCCCCCCCC[N+](C)(C)Cc1ccccc1 : inactive
CN(C)c1ccc(N(C)C)cc1 : active
CCCCOCCOCCSC#N : inactive
N#CC(O)c1ccccc1 (stereo unspecified) : inactive

From here, focus on the item given below.
Qu. So what was the verdict on C=CC(=O)OCCCCCCOC(=O)C=C in this test?
Ans. inactive

###

- Test system: CCRIS mutagenicity, Ames/micronucleus/aberration tests
- Test method notes: CCRIS mutagenicity studies
- Test settings: Test System: AMES SALMONELLA TYPHIMURIUM; Strain/Indicator: TA1535; Metabolic Activation: RAT, LIVER, S-9, AROCLOR 1254; Method: STANDARD PLATE
Calls of active or inactive are those of the source. No rule for the calls is given here.
Outcomes you can answer with include only these: True = active, False = inactive

O=C(n1ccnc1)n1ccnc1 : False

Qu. Dear colleague, could you share the recorded outcome for C=CC(=O)OC when you have a moment?
Ans. False

Qu. Please let me know the test result on file for O=c1[nH]c(=O)[nH]c(=O)[nH]1 .
Ans. False

Qu. What classification did CCN(N=O)C(N)=O end up with in this test?
Ans. True

Qu. Check the results log: what was the call for O=[N+]([O-])c1ccccc1OS(=O)(=O)c1cccc2cccnc12 ?
Ans. False

Qu. Tell me the assay call for O=S(O)O please.
Ans. False

Qu. Outcome logged for CCOC(=O)CC(=O)CCl in this assay:
Ans. False

Qu. What classification did CN(C)c1ccc(C(=O)c2ccc(N(C)C)cc2)cc1 end up with in this test?
Ans. False

###

- Tested on: CCRIS mutagenicity, Ames/micronucleus/aberration tests
- Test method notes: CCRIS mutagenicity studies
- Test settings: Test System: AMES SALMONELLA TYPHIMURIUM; Strain/Indicator: TA98(1,8-DNP6); Metabolic Activation: NONE; Method: STANDARD PLATE
Active and inactive are the calls of the source. How the calls were made is not given here.
Use one of these outcomes when replying: active, inactive

Check out these entries, answers already filled in.
Nc1ccc2ccc3cccc4ccc1c2c34 : active
O=[N+]([O-])c1ccc2ccc3ccccc3c2c1 : active
O=[N+]([O-])c1ccc2c3cccc4cccc(c5c([N+](=O)[O-])ccc1c25)c43 : active

Qu. Hey, what did the test say about O=[N+]([O-])c1ccc2ccc3c4c(cc5ccc1c2c53)CCC=C4 ?
Ans. active

Qu. What classification did O=C1CN(/N=C/c2ccc([N+](=O)[O-])o2)C(=O)N1 end up with in this test?
Ans. active

Qu. Short answer needed: outcome of this test for O=[N+]([O-])c1ccc2c(O)cc3cccc4ccc1c2c43 ?
Ans. active

Qu. I would be grateful if you could indicate the recorded call for NC(=O)N/N=C/c1ccc([N+](=O)[O-])o1 .
Ans. active

Qu. Can you look up the reported call for ONc1ccc(Sc2ccccc2)cc1 for me?
Ans. active

Qu. Any idea what this test logged for O=[N+]([O-])c1cc2c3c(ccc4cccc(c43)CC2)c1 ?
Ans. active

Qu. Dear colleague, could you share the recorded outcome for O=[N+]([O-])c1ccc2c3c(c(O)ccc13)-c1ccccc1-2 when you have a moment?
Ans. inactive

Qu. Identify the outcome logged in this assay for the compound shown: COc1ccc(/C=C/c2ccc(N)cc2)cc1
Ans. inactive

Qu. How did this test come out for Cc1cc(-c2ccc(N)c(C)c2)ccc1N ?
Ans. inactive

###

- System: CCRIS mutagenicity, Ames/micronucleus/aberration tests
- Test method notes: CCRIS mutagenicity studies
- Test settings: Test System: AMES SALMONELLA TYPHIMURIUM; Strain/Indicator: TA98; Metabolic Activation: RAT, LIVER, S-9; Method: STANDARD PLATE
Activity calls are given as the source filed them. How the calls were made is not given here.
Could you please pick one outcome from this set? active, inactive

Cc1ncc2c(n1)CCC2 : inactive

Qu. Per the assay record, what outcome was assigned to Nc1ccc(Cl)c(N)c1 ?
Ans. active

Qu. I'd appreciate the recorded outcome for CC(=O)OCc1c(O)c(C(=O)O)c(C)c2c1OC(=O)c1c(C)cc(O)c(C=O)c1O2 from this test.
Ans. inactive

Qu. Recorded call for CCC1(CC(=O)O)OCCc2c1[nH]c1c(C)cccc21 (configuration not stated) ?
Ans. inactive

Qu. Per the records of this test, what outcome belongs to CN(C)c1ccc(C(=C2C=CC(=[N+](C)C)C=C2)c2ccccc2)cc1 ?
Ans. active

Qu. State the result this test recorded for COc1ccc(N)cc1 .
Ans. inactive

Qu. Short answer needed: outcome of this test for Cc1ccc(N=Nc2c(O)ccc3ccccc23)cc1 ?
Ans. inactive

###

- Tested on: CCRIS mutagenicity, Ames/micronucleus/aberration tests
- Test method notes: CCRIS mutagenicity studies
- Test settings: Test System: E. COLI; Strain/Indicator: WP2 UVRA; Metabolic Activation: NONE; Method: PREINCUBATION
The source made the active and inactive calls. No rule for the calls is given here.
Mark one answer only. Choices: active, inactive

CC(=O)OC/N=[N+](/C)[O-] : inactive
O=CC1CO1 (configuration not stated) : active
CC(C)(S)C(=O)N[C@@H](CS)C(=O)O : inactive
C[C@H]1SC[C@@H](C(=O)N[C@@H](Cc2cnc[nH]2)C(=O)N2CCC[C@H]2C(N)=O)NC1=O : inactive
F[B-](F)(F)F : inactive

Qu. Call for entry CCCCN(N=O)C(=O)NC :
Ans. active

Qu. What outcome does the record of this test show for CCCCOC(C)=O ?
Ans. inactive

###

- System: CCRIS mutagenicity, Ames/micronucleus/aberration tests
- Test method notes: CCRIS mutagenicity studies
- Test settings: Test System: AMES SALMONELLA TYPHIMURIUM; Strain/Indicator: TA100; Metabolic Activation: NONE; Method: STANDARD PLATE
Active and inactive are the calls of the source. The rule behind the calls is not given here.
Give one outcome, nothing more. List: active, inactive

CNC(=O)c1cccc2c(Nc3ccc(NS(C)(=O)=O)cc3OC)c3cccc(C)c3nc12 : inactive

--- query ---
Qu. Record request — test call for Cc1cc(C)c(C)c(C)c1
Ans. inactive

###

- System: CCRIS mutagenicity, Ames/micronucleus/aberration tests
- Test method notes: CCRIS mutagenicity studies
- Test settings: Test System: AMES SALMONELLA TYPHIMURIUM; Strain/Indicator: TA1535; Metabolic Activation: RAT, LIVER, S-9, AROCLOR 1254 (10%); Method: PREINCUBATION
Activity calls are given as the source filed them. No rule for the calls is given here.
Give your call using only these classes: YES for active, NO for inactive

Here are 8 molecules together with their reported answers.
CN(C)/N=N/c1nc[nH]c1C(N)=O : YES
CCc1cc(C(N)=S)ccn1 : NO
CCCCCCCCCCCC(=O)[O][Sn]([CH2]CCC)([CH2]CCC)[O]C(=O)CCCCCCCCCCC : NO
O=C1NC(=O)C(c2ccccc2)(c2ccccc2)N1 : NO
NC(=O)N/N=C/c1ccc([N+](=O)[O-])o1 : YES
O=C=Nc1ccc(Cc2ccc(N=C=O)cc2)cc1 : NO
CCCCCCCC/C=C/CCCCCCCC(=O)OCCOCC(OCCO)C1OCC(OCCO)C1OCCO (stereo not drawn) : NO
CC(=O)CC(C)C : NO

Qu. // param item: Cc1ccccc1OP(=O)(Oc1ccccc1)Oc1ccccc1 ; yields the recorded call
Ans. NO

Qu. GET /call?item= COc1cc(/C=C/C(=O)CC(=O)/C=C/c2ccc(O)c(OC)c2)ccc1O returns the recorded outcome of this test.
Ans. NO

Qu. Per the assay record, what outcome was assigned to CC1CCCC1 ?
Ans. NO

Qu. GET /call?item= C=CC(=O)OCC(Br)CBr (stereo not drawn) returns the recorded outcome of this test.
Ans. YES

Qu. Kindly provide the recorded test outcome for the following molecule: NS(=O)(=O)c1cc(C(=O)O)c(NCc2ccco2)cc1Cl
Ans. NO

Qu. Name the outcome recorded for Cc1ccc(NC(N)=O)cc1 in the assay.
Ans. NO

Qu. Any idea what this test logged for C=CC(=O)OCC(CO)(COC(=O)C=C)COC(=O)C=C ?
Ans. NO

Qu. Please state the recorded outcome for this molecule: CC(C)CCCCCOC(=O)C[S][Sn]([CH3])([S]CC(=O)OCCCCCC(C)C)[S]CC(=O)OCCCCCC(C)C
Ans. NO

Qu. Short answer needed: outcome of this test for Nc1ccccc1Cl ?
Ans. NO

Qu. How was CCCCCCCCCCCCCCCCC1CO1 (stereo not drawn) classified in this test?
Ans. NO
